OBSERVABLE: melting point

Query (molecule): CC(C)C1=C(Sc2ccccc2)C(c2ccc(F)cc2)=C(C(C)O)C(C(C)C)N1C (centres undefined) ; field requested: melting point 125 to 128 °C

Now try CC(=O)NCC1CC1c1cccn2nc(C)nc12 (centres undefined) . 116 to 118 °C

Item: O=S(=O)(Nc1ccc(Cl)cc1)c1ccc(Cl)cc1 144 to 146 °C

Follow-up entry: Clc1cccc(Nc2ncnc3[nH]nc(NCc4ccc(-c5cncs5)cc4)c23)c1 235 °C

Next: C=C(c1ccc(Cl)cc1)C1(n2ccnc2)CC1 94 to 95 °C

// query: Cc1cc(C)c(-c2c(OCOCC(C)C)oc(-c3ccsc3)c(C)c2=O)c(C)c1 102 to 104 °C

Now give it for CCC(=O)OCCOCn1cnc2c(=O)[nH]c(N)nc21 too. 223 to 226 °C

Thanks! And Cc1cc(C)nc(NC(=NO)NS(=O)(=O)c2ccccc2Cl)n1 ? 165 to 167 °C

Try the molecule CN(C)C1CCn2c1nc1cc(NC(=O)c3cc4cc(C(F)(F)F)ccc4n3Cc3cccc(F)c3)cnc12 (single isomer, unassigned; (-)) 203 to 205 °C

Check CCOC(=O)c1cn[nH]c1C(=O)CC(C)C too. 105 to 107 °C

Do the same for Cc1ccc(CCC(=O)C(=[N+]=[N-])C(=O)CCc2ccc(C)cc2)cc1 please 45.6 to 46.8 °C

Check CCOC(=O)c1c(-c2ccccc2C)c2cc3c(cc2n(C)c1=O)CCC3 too. 134 to 135 °C

Queued: CC(C)n1c(NN)nc2ccccc2c1=O 123 to 124 °C

Do the same for CC(C)(C)OC(=O)N1CCN(C(=O)N2CCC(c3[nH]nc4c3C(=O)c3c(NC(=O)NN5CCOCC5)cccc3-4)CC2)CC1 please 231 to 232 °C

Similarly, CC(Oc1ccc(F)cc1)c1ccnc2ncnn12 (centres undefined) ? 100 to 102 °C

Follow-up item: O=C(O)c1nn(-c2ccc(Cl)cc2Cl)c2c1CCc1sc(Br)cc1-2 235 to 237 °C

Continue with O=C(O)c1ccc(N(CCn2ccnc2)c2ccc(F)cc2)cc1-c1ccc(F)cc1 195 to 200 °C

Now consider CC(=O)OCC1OC(SCC=Cc2ccccc2)C(OC(C)=O)C(OC(C)=O)C1OC(C)=O (centres undefined) . 113 to 114 °C

Also need Cc1cc(Nc2ccnc(Nc3ccc(S(=O)(=O)N(CCN)C4CCNCC4)cc3)n2)ccc1F , thanks. 134 to 135 °C

And COc1ccc(C(=O)c2cccc([N+](=O)[O-])c2C)cc1 ? 110 to 113 °C

Another molecule to look at: COCc1nnc(N)s1 177 to 179 °C

Now the same for Cc1nn(C)c2nc3ccccc3c(Cl)c12 127 to 129 °C

Entry to check: CC1(C)OCC(CBr)(CBr)CO1 56 to 58 °C

Next entry: COc1ccc(C(=CN2CCNC2=O)c2ccccc2)cc1OC 155 °C

Proceed to CCOc1cc(C)ccc1C1CCN(CCCCC(=O)Nc2ccc(-c3ccc(C(F)(F)F)cc3)cc2)CC1 178 °C

Would you mind doing COc1nc(C)nc(NC(=O)NS(=O)(=O)c2ccccc2C(=S)C(C)C)n1 as well? 155 to 158 °C

Also, O=S(=O)(c1ccccc1)c1ccc(-c2ccccc2)s1 please. 115 to 116 °C

FC(F)(F)c1cc(C2CCCO2)c2cccc(C(F)(F)F)c2n1 (centres undefined) , same question. 61 to 61.7 °C

What do we get for N#CN1CCC(=C2c3ccccc3CCc3ccncc32)CC1 ? 212 to 214 °C

Same again, this time with Cc1ncc(-c2ccc(C(F)(F)F)cc2)c(NC2CCCCC2)n1 220 to 225 °C

And the next one, CCN(CC)Cc1nc(-c2ncn3c2CN(C)C(=O)c2cc(F)ccc2-3)no1 ? 172 to 174 °C

Same read-out for COc1ccc(/C(C#N)=C/c2ccc(OC)c(OC3CCCC3)c2)cc1OC ? 101 to 103 °C

Moving on to the next molecule: COc1ccc(-c2[nH]nc3c2C(=O)c2c(NC(=O)Cc4ccc5c(c4)OCO5)cccc2-3)cc1 297 °C

// repeat for CCOCc1nc2c(N)nc3cc(-c4ccccc4)cnc3c2n1CCCONC(C)C and report 142 to 144 °C
